- testedOn: Carbonic anhydrase 9 (Homo sapiens, UniProt Q16790)
- measurementProtocol: Inhibition of recombinant human CA9 pre-incubated for 15 mins measured by phenol red dye based stopped flow CO2 hydration assay
Rule: measured Ki below 200 nM gets 1.0; anything equal to or greater than 200 nM gets 0.0.

Prompt: Take the compound COc1cc([Te]CC(O)CSc2ccc(S(N)(=O)=O)cc2)cc(OC)c1OC (stereo unspecified) and say whether its Ki is less than 200 nM.
Completion: 1.0

Prompt: Given the entry Cc1ccccc1[Se]CC(O)C[Se]c1ccc(S(N)(=O)=O)cc1 (stereo unspecified) , would its reported Ki be below 200 nM?
Completion: 1.0

Prompt: # check: Ki < 200 nM for Cc1ccc(S(=O)(=O)N[C@@H](C)CSCC(O)CSc2ccc(S(N)(=O)=O)cc2)cc1 (stereo partly specified)
Completion: 1.0

Prompt: Item NS(=O)(=O)c1ccc(SCC(O)C[Se]c2ccccc2)cc1 (stereo unspecified) : Ki beneath 200 nM, strictly?
Completion: 1.0

Prompt: I wonder whether C=CCOCC(O)C[Se]CC(O)CSc1ccc(S(N)(=O)=O)cc1 (stereo unspecified) has Ki below 200 nM. Can you tell?
Completion: 0.0

Prompt: Hi there! Is Ki for NS(=O)(=O)c1ccc([Se]CC(O)CSc2ccccc2)cc1 (stereo unspecified) below 200 nM, do you know?
Completion: 0.0

###

- testedOn: Carbonic anhydrase 9 (Homo sapiens, UniProt Q16790)
- measurementProtocol: Inhibition of recombinant human CA9 pre-incubated for 15 mins measured by phenol red dye based stopped flow CO2 hydration assay
I'd appreciate it if you could supply Ki values for the items below.
Write down the numeric answer in nM and omit the unit.

Prompt: Report Ki for CCCC[Se]CC(O)C[Se]c1ccc(S(N)(=O)=O)cc1 (stereo unspecified) tested on Carbonic anhydrase 9 (Homo sapiens, UniProt Q16790).
Completion: 208

Prompt: Request: Ki, test system Carbonic anhydrase 9 (Homo sapiens, UniProt Q16790), entry Cc1ccc([Te]CC(O)C[Se]c2ccc(S(N)(=O)=O)cc2)cc1 (stereo unspecified)
Completion: 152

Prompt: Request - read-out Ki | tested on Carbonic anhydrase 9 (Homo sapiens, UniProt Q16790) | molecule C=CCOCC(O)C[Se]CC(O)C[Se]c1ccc(S(N)(=O)=O)cc1 (stereo unspecified)
Completion: 157

Prompt: Ki of NS(=O)(=O)c1ccc([Se]CC(O)CSc2ccc(Br)cc2)cc1 (stereo unspecified) on Carbonic anhydrase 9 (Homo sapiens, UniProt Q16790)?
Completion: 172

Prompt: Param readout = Ki; param system = Carbonic anhydrase 9 (Homo sapiens, UniProt Q16790); param query = CC(O)CSCC(O)C[Se]c1ccc(S(N)(=O)=O)cc1 (stereo unspecified) ; response: value
Completion: 275

Prompt: Return Ki measured with Carbonic anhydrase 9 (Homo sapiens, UniProt Q16790) given this molecule: NS(=O)(=O)c1ccc([Se]CC(O)C[Se]c2ccccc2)cc1 (stereo unspecified)
Completion: 84.5

Prompt: Field: Ki (Carbonic anhydrase 9 (Homo sapiens, UniProt Q16790)). Entry: NS(=O)(=O)c1ccc([Se]CC(O)CSc2ncccn2)cc1 (stereo unspecified)
Completion: 31

Prompt: Ki of COc1ccc([Se]CC(O)CSc2ccc(S(N)(=O)=O)cc2)cc1 (stereo unspecified) on Carbonic anhydrase 9 (Homo sapiens, UniProt Q16790)?
Completion: 156

Prompt: # get_value(readout= Ki, system= Carbonic anhydrase 9 (Homo sapiens, UniProt Q16790)) for CCCC[Se]CC(O)CSc1ccc(S(N)(=O)=O)cc1 (stereo unspecified)
Completion: 164

Prompt: Recorded Ki for NS(=O)(=O)c1ccc(SCC(O)CSc2ccccc2Br)cc1 (stereo unspecified) with Carbonic anhydrase 9 (Homo sapiens, UniProt Q16790), please?
Completion: 175

Prompt: Test system Carbonic anhydrase 9 (Homo sapiens, UniProt Q16790); read-out Ki; what value for NS(=O)(=O)c1ccc(SCC(O)CSc2cccc(Br)c2)cc1 (stereo unspecified) ?
Completion: 135
